// data source = paper PMC10534582

Cmax values by entry
# PROTOCOL: Pharmacokinetics of JHG components in control rats after intragastric administration of JHGs (plasma, Orbitrap Fusion MS)
# Format: in vivo, Sprague Dawley (SD) rats
# CONDITION CONTEXT: male, Sprague Dawley, rat, plasma, po, 5.7 g/kg/day, intragastric JHGs, low dose 5.70 g/kg/d, n=6 (1st of 3 stacked values)
Form entry: enter the amount, then its unit.

Example compounds with recorded Cmax:
• O=c1cc(-c2ccc(O)c(O)c2)oc2cc(O[C@@H]3O[C@H](CO)[C@@H](O)[C@H](O)[C@H]3O)cc(O)c12 [Cynaroside] = 44 ng/mL
• CC1CCC2N(C1)CC1C3CC4C(CC(O)C5CC(O)CCC54C)C3CCC1C2(C)O (stereo not shown) [Peimine] = 0.57 ng/mL
• CC1CCC2N(C1)CC1C3CC4C(CC(=O)C5CC(O)CCC54C)C3CCC1C2(C)O (stereo not shown) [Peiminine] = 2.91 ng/mL

Sure, the documented Cmax for O=c1cc(-c2ccc(O)cc2)oc2cc(OC3OC(CO)C(O)C(O)C3O)cc(O)c12 (stereo not shown) [Apigenin-7-glucoside] is 1.99 ng/mL
